Reported Kd by item:
Target: T1, RAP1B, mGppNHp-bound (human, UniProt P61224 1-184)
T1 construct: human RAP1B; Loaded with mGppNHp
T1 sequence (looked up): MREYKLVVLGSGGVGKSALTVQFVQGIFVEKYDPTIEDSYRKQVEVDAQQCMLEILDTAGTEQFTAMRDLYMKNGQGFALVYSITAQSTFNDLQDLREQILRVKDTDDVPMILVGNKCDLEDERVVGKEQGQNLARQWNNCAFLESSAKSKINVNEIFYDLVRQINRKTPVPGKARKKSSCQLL
Test: fluorescence polarisation; increasing concentrations of the RA/RB domain as MBP fusion protein (0.002-300 µM; or MBP alone) titrated to mGppNHp-bound RAS protein (1 µM); 30 mM Tris-HCl pH 7.4, 100 mM NaCl, 5 mM MgCl2, 3 mM DTT; Kd from a quadratic ligand-binding equation
Settings: both partners purified
experimental_readout: Kd (µM)

1. RASSF10 RA domain, MBP fusion protein (domain or fragment, human, UniProt A6NK89 4-133, looked up, RASSF10 RA domain, aa 4-133 of A6NK89) SEKKISVWICQEEKLVSGLSRRTTCSDVVRVLLEDGCRRRRRQRRSRRLGSAGDPHGPGELPEPPNEDDEDDDEALPQGMLCGPPQCYCIVEKWRGFERILPNKTRILRLWAAWGEEQENVRFVLVRSEA	73
2. RASSF3 RA domain, MBP fusion protein (domain or fragment, human, UniProt Q86WH2 79-187, looked up, RASSF3 RA domain, aa 79-187 of Q86WH2) YTGFIKVQMELCKPPQTSPNSGKLSPSSNGCMNTLHISSTNTVGEVIEALLKKFLVTESPAKFALYKRCHREDQVYACKLSDREHPLYLRLVAGPRTDTLSFVLREHEI	116

Provenance of the data: paper PMC8163975
